System: Candida tropicalis
method-notes: Antifungal activity against Candida tropicalis Berkout KCCM 50662 after 1 day by two fold broth dilution method
Type: functional
recorded-conditions: Berkout KCCM 50662, 24 h
# note: boundary value 6 µg/mL maps to class 0; MIC below it maps to class 1

Does this compound meet the criterion MIC < 6 µg/mL? COC(=O)c1c(C)nc(C)c2c1C(=O)C=C(Sc1ccc(C)cc1)C2=O
class 0

###

System: Candida tropicalis
method-notes: Antifungal activity against Candida tropicalis Berkout KCCM 50662 after 1 day by two fold broth dilution method
Type: functional
recorded-conditions: Berkout KCCM 50662, 24 h
readout-name: MIC (mg/L)
Please reply with the bare figure in mg/L and do not write the unit itself.

COC(=O)c1c(C)nc(C)c2c1C(=O)C=C(Nc1ccc(I)cc1)C2=O 12.5
COC(=O)c1c(C)nc(C)c2c1C(=O)C=C(Sc1ccc(O)cc1)C2=O 25
COC(=O)c1c(C)nc(C)c2c1C(=O)C(Cl)=C(Nc1ccc(Br)cc1)C2=O 12.5
COC(=O)c1c(C)nc(C)c2c1C(=O)C(Br)=C(Nc1ccc(Cl)cc1)C2=O 6.3

Now look at this entry.
Let me know recorded MIC for COC(=O)c1c(C)nc(C)c2c1C(=O)C(Cl)=C(Nc1ccc(F)cc1)C2=O , thanks.
1.6

###

Test system: Candida tropicalis
method-notes: Antifungal activity against Candida tropicalis Berkout KCCM 50662 after 1 day by two fold broth dilution method
Type: functional
recorded-conditions: Berkout KCCM 50662, 24 h
readout-name: MIC (µg/mL)
# number only, unit µg/mL dropped from output

molecule	meas-value
COC(=O)c1c(C)nc(C)c2c1C(=O)C(Br)=C(Nc1ccc(OC)cc1)C2=O	12.5
COC(=O)c1c(C)nc(C)c2c1C(=O)C(Cl)=C(Nc1ccc(OC)cc1)C2=O	12.5
OC(Cn1cncn1)(Cn1cncn1)c1ccc(F)cc1F [FLUCONAZOLE]	6.3
COC(=O)c1c(C)nc(C)c2c1C(=O)C(Cl)=C(Nc1ccc(Cl)cc1)C2=O	6.3
COC(=O)c1c(C)nc(C)c2c1C(=O)C(Cl)=C(Nc1ccc(F)c(F)c1)C2=O	25

Consider the molecule Nc1nc(=O)[nH]cc1F [FLUCYTOSINE] . State its measured MIC.
3.2

State, in one line, measured MIC of COC(=O)c1c(C)nc(C)c2c1C(=O)C(Br)=C(Nc1ccc(C)cc1)C2=O
1.6

Using known records, supply MIC for COC(=O)c1c(C)nc(C)c2c1C(=O)C=CC2=O
12.5

Read the entry COC(=O)c1c(C)nc(C)c2c1C(=O)C(Cl)=C(Nc1ccc(I)cc1)C2=O and write its reported MIC.
6.3

###

Tested on: Candida tropicalis
method-notes: Antifungal activity against Candida tropicalis Berkout KCCM 50662 after 1 day by two fold broth dilution method
Type: functional
recorded-conditions: Berkout KCCM 50662, 24 h
Quick reference for MIC among some compounds
Report only the number, with the unit µg/mL understood.

Example entries begin here.
COC(=O)c1c(C)nc(C)c2c1C(=O)C=C(Nc1ccc(C)cc1)C2=O 25
COC(=O)c1c(C)nc(C)c2c1C(=O)C(Br)=C(Nc1ccc(F)c(F)c1)C2=O 1.6
CC(=O)c1cc(O)ccc1O 50
COC(=O)c1c(C)nc(C)c2c1C(=O)C(Cl)=C(Nc1ccc(C)cc1)C2=O 0.8
COC(=O)c1c(C)nc(C)c2c1C(=O)C=C(Sc1ccc(C)c(C)c1)C2=O 12.5

Look up and report measured MIC (Candida tropicalis) for the following compound: COC(=O)c1c(C)nc(C)c2c1C(=O)C(Cl)=C(Nc1ccc(C#N)cc1)C2=O
12.5

# lookup: Candida tropicalis MIC, key = COC(=O)c1c(C)nc(C)c2c1C(=O)C(Br)=C(Nc1ccc(F)cc1)C2=O
6.3

Supply MIC measured with Candida tropicalis for COC(=O)c1c(C)nc(C)c2c1C(=O)C(Br)=C(Nc1ccc(Br)cc1)C2=O .
1.6

Report measured MIC on Candida tropicalis; entry: COC(=O)c1c(C)nc(C)c2c1C(=O)C=C(Nc1ccc(Br)cc1)C2=O
12.5

FYI, the data here is from ChEMBL document CHEMBL2346510.
